- Assayed System: T1, TIGIT fusion protein with Fc or mFc tag (human, UniProt Q495A1 22-141)
- T1 construct: extracellular domain; also called TIGIT-Fc; TIGIT-mFc
- T1 sequence (looked up): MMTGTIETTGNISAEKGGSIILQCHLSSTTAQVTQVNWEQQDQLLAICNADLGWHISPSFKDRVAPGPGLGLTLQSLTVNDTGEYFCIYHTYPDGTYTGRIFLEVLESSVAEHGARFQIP
- Method: HTRF blocking assay: TIGIT-Fc or TIGIT-mFc with biotinylated CD155 as the blocked ligand, ratio 665/620
Observable: IC50 (read off the curve)

Indicate its recorded IC50 (read off the curve); the binder in question is h1710-01 (antibody, human IgG4 S228P, kappa, V domains shown, also called humanized TIGIT antibody h1710-01) VH: EVQLVQSGAEVKKPGASVKVSCKASGYTFTNYYMHWVRQAPGQGLEWMGRIDPTSGATKYNDNFKGRVTMTRDTSTSTVYMELSSLRSEDTAVYYCAREGGFGYYFDYWGQGTTVTVSS VL: DIQMTQSPSSLSASVGDRVTITCRTSENIFTYLAWYQQKPGKAPKLLIYNAKTFAEGVPSRFSGSGSGTDFTLTISSLQPEDFATYYCQHHYGIPLPFGQGTKLEIKR
~2 nM
